Sequence of the target: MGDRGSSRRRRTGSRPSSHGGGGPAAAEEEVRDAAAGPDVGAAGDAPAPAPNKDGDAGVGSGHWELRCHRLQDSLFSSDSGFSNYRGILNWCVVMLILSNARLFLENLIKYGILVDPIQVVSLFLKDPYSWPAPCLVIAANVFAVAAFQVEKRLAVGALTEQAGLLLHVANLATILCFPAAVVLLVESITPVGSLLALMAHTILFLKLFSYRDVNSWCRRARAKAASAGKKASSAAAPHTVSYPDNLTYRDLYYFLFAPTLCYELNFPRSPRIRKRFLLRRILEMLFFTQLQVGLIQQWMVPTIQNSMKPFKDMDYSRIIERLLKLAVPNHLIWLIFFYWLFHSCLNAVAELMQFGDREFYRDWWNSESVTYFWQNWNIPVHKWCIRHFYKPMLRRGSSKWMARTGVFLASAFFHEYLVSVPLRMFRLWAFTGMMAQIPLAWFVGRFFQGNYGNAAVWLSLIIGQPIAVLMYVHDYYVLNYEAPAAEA
pIC50: −log10 of the molar value.
Please use YES whenever pIC50 is not below 8, and NO whenever it is.

Exam item: Threshold query (pIC50 >= 8) on O=C(O)CC1(CC(F)(F)F)CCc2cc(-c3ccc(NC(=O)Nc4cccc(Cl)c4)cc3)ccc2C1=O (single isomer, unassigned)
Marked response: YES

Exam item: Threshold query (pIC50 >= 8) on CC1(CC(=O)O)CCc2cc(-c3ccc(NC(=O)Nc4cccc(Cl)c4)cc3Cl)ccc2C1=O (single isomer, unassigned)
Marked response: NO

Exam item: Threshold query (pIC50 >= 8) on CCC(CC)NC(=O)Nc1cnc(-c2ccc3c(c2)CCC(CC(=O)O)(CC(F)(F)F)C3=O)cn1 (stereo not shown)
Marked response: NO

Exam item: Threshold query (pIC50 >= 8) on COC1(CC(=O)O)CCc2cc(-c3ccc(NC(=O)Nc4cccc(Cl)c4)cc3)ccc2C1=O (stereo not shown)
Marked response: YES

----------
Biological target: Human DGAT1 (Homo sapiens)
Construct: made in house; host or cells: Sf9 insect cells (baculovirus), microsomes
Experiment: human DGAT1 fluorescence (CPM) assay, inhibition of CoA product formation
Type: biochemical
Conditions: human DGAT1 fluorescene (CPM) assay; microsomes from Sf9 insect cells; read-out: hDGAT IC50
pIC50: −log10 of the molar value.
Please use MET whenever pIC50 is not below 8, and NOT MET whenever it is.

Exam item: Threshold query (pIC50 >= 8) on O=C(O)CC1CCc2cc(-c3ccc(NC(=O)Nc4cccc(C(F)(F)F)c4)cc3)ccc2C1=O (stereo not drawn)
Marked response: NOT MET

Exam item: Threshold query (pIC50 >= 8) on O=C(O)CC1(CC(F)(F)F)CCc2cc(-c3cnc(NC(=O)Nc4cccc(Cl)c4)cn3)ccc2C1=O (stereo not drawn)
Marked response: MET

Exam item: Threshold query (pIC50 >= 8) on COCC1(CC(=O)O)CCc2cc(-c3ccc(NC(=O)Nc4cccc(C(F)(F)F)c4)cc3)ccc2C1=O (stereo not drawn)
Marked response: MET

Exam item: Threshold query (pIC50 >= 8) on CCC1(CC(=O)O)Cc2cc(-c3ccc(NC(=O)Nc4cccc(C(F)(F)F)c4)cc3)ccc2C1=O (stereo not drawn)
Marked response: NOT MET

----------
Biological target: Human DGAT1 (Homo sapiens)
Sequence (O75907 1-488): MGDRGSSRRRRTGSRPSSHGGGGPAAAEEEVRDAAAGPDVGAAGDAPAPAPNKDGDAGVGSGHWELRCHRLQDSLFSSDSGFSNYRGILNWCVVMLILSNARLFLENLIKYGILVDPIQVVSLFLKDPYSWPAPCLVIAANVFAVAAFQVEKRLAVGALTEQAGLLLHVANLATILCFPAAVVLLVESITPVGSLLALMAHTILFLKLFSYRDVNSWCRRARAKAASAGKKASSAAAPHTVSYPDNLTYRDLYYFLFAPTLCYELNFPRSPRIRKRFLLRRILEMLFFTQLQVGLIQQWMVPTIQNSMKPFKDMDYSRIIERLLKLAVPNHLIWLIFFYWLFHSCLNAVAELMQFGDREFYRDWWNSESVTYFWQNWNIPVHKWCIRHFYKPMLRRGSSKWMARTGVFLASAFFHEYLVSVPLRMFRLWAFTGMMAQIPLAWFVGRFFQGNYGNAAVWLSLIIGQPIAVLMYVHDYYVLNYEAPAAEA
Hi! Could you tag entries with IC50 below 4 nM as label 1, and those at or above as label 0? Much appreciated.

Exam item: Dear reviewer, please state whether O=C(O)CC1(CC(F)(F)F)CCc2cc(-c3ccc(NC(=O)Nc4cc(Cl)cc(Cl)c4)cc3)ccc2C1=O (stereo not shown) has IC50 strictly beneath 4 nM.
Marked response: label 1

Exam item: Dear reviewer, please state whether CCc1ccc(NC(=O)Nc2cnc(-c3ccc4c(c3)CCC(CC(=O)O)(CC(F)(F)F)C4=O)cn2)cc1 (stereo not shown) has IC50 strictly beneath 4 nM.
Marked response: label 1

Exam item: Dear reviewer, please state whether O=C(O)CC1(CO)CCc2cc(-c3ccc(NC(=O)Nc4cccc(Cl)c4)c(F)c3)ccc2C1=O (stereo not shown) has IC50 strictly beneath 4 nM.
Marked response: label 0

Exam item: Dear reviewer, please state whether `CC[C@@]1(CC(=O)O)CCc2cc(-c3ccc(NC(=O)Nc4cccc(Cl)c4)cn3)ccc2C1=O` has IC50 strictly beneath 4 nM.
Marked response: label 0

Exam item: Dear reviewer, please state whether O=C(O)CCC1CCc2cc(-c3ccc(NC(=O)Nc4cccc(C(F)(F)F)c4)cc3)ccc2C1=O (stereo not shown) has IC50 strictly beneath 4 nM.
Marked response: label 0

Exam item: Dear reviewer, please state whether COC1(CC(=O)O)CCc2cc(-c3ccc(NC(=O)Nc4ccccc4)cc3)ccc2C1=O (stereo not shown) has IC50 strictly beneath 4 nM.
Marked response: label 0

Exam item: Dear reviewer, please state whether CCC1(CC(=O)O)CCc2cc(-c3ccc(NC(=O)Nc4cccc(Cl)c4)c(F)c3)ccc2C1=O (stereo not shown) has IC50 strictly beneath 4 nM.
Marked response: label 0
